species: Rattus norvegicus; assay: DrugMatrix - Regimen: Daily Repeat; type: toxicity, organism-based, Sprague-Dawley; parameters: regimen Daily Repeat, gender Male, age 6-8 weeks; conditions: in vivo, po, 0 mg/kg, 72 h, tissue Plasma, route oral GAVAGE, dose level Control, time 3 day, […]
Measured ALANINE AMINOTRANSFERASE accompanies every entry in the list below.
Unit u/L implied. Number only.

CC(=O)Nc1ccc(O)cc1 [ACETAMINOPHEN] | 69.67

Form field: reported ALANINE AMINOTRANSFERASE of Clc1ccc(Cl)cc1 [1,4-DICHLOROBENZENE]
46.67

Form field: reported ALANINE AMINOTRANSFERASE of C[C@H]1O[C@@H](O[C@H]2[C@@H](O)C[C@H](O[C@H]3[C@@H](O)C[C@H](O[C@H]4CC[C@@]5(C)[C@H](CC[C@@H]6[C@@H]5CC[C@]5(C)[C@@H](C7=CC(=O)OC7)CC[C@]65O)C4)O[C@@H]3C)O[C@@H]2C)C[C@H](O)[C@@H]1O [DIGITOXIN]
72

---

species: Rattus norvegicus; assay: DrugMatrix - Regimen: Daily Repeat; assay type: toxicity, organism-based, Sprague-Dawley; design: regimen Daily Repeat, gender Male, age 6-8 weeks; conditions: in vivo, po, 0 mg/kg, 120 h, tissue Plasma, route oral GAVAGE, dose level Control, time 5 day, […]
Measured LIPASE accompanies every entry in the list below.
Unit u/L implied. Number only.

Previously resolved entries follow.
CC(C)(Oc1ccc(C2CCCc3ccccc32)cc1)C(=O)O (stereo not given) | 11
Clc1ccc(Cl)cc1 | 10.67
O=C(O)Cc1ccccc1Nc1c(Cl)cccc1Cl | 9.5
COc1ccc2[nH]c([S+]([O-])Cc3ncc(C)c(OC)c3C)nc2c1 (stereo not given) | 14.83

Now for a further compound.
Form field: reported LIPASE of CCOC(=O)C1=C(C)NC(C)=C(C(=O)OC)C1c1cccc([N+](=O)[O-])c1 (stereo not given)
10.5

---

organism: Rattus norvegicus; assay: DrugMatrix - Regimen: Daily Repeat; format: toxicity, organism-based, Sprague-Dawley; design: regimen Daily Repeat, gender Male, age 6-8 weeks; conditions: in vivo, po, 0 mg/kg, 72 h, tissue Plasma, route oral GAVAGE, dose level Control, time 3 day, […]
observationType: POTASSIUM (MEQ/L)
Unit MEQ/L implied. Number only.

Previously resolved entries follow.
CC/C(=C(/CC)c1ccc(O)cc1)c1ccc(O)cc1 | 5.03
Clc1ccc(Cl)cc1 | 6.13
CCOC(=O)C(C)(C)Oc1ccc(Cl)cc1 [CLOFIBRATE] | 4.79
CC(C)(Oc1ccc(C2CCCc3ccccc32)cc1)C(=O)O (stereo not drawn) | 6.51
C[C@]12CC[C@@H]3c4ccc(O)cc4CC[C@H]3[C@@H]1CC[C@@H]2O | 5.56
CC(=O)Nc1cccc(O)c1 | 6.1

Form field: reported POTASSIUM of COc1ccc2[nH]c([S+]([O-])Cc3ncc(C)c(OC)c3C)nc2c1 (stereo not drawn)
6.13

Form field: reported POTASSIUM of C[C@H]1O[C@@H](O[C@H]2[C@@H](O)C[C@H](O[C@H]3[C@@H](O)C[C@H](O[C@H]4CC[C@@]5(C)[C@H](CC[C@@H]6[C@@H]5CC[C@]5(C)[C@@H](C7=CC(=O)OC7)CC[C@]65O)C4)O[C@@H]3C)O[C@@H]2C)C[C@H](O)[C@@H]1O
5.22

---

species on record: Rattus norvegicus; assay: DrugMatrix - Regimen: Daily Repeat; assay type: toxicity, organism-based, Sprague-Dawley; design: regimen Daily Repeat, gender Male, age 6-8 weeks; details: in vivo, po, 1500 mg/kg, 120 h, tissue Blood, route oral GAVAGE, dose level High, time 5 day, vehicle .5 % CMC
observationType: ABSOLUTE LYMPHOCYTE (CELLS/uL)
Unit CELLS/uL implied. Number only.

Previously resolved entries follow.
CNC(=C[N+](=O)[O-])NCCSCc1ccc(CN(C)C)o1 [RANITIDINE] | 16689.33
NC(=O)c1cnccn1 [PYRAZINAMIDE] | 11940
C[C@]1(Cn2ccnn2)[C@H](C(=O)O)N2C(=O)C[C@H]2S1(=O)=O [TAZOBACTAM] | 11683.33
O=C(N[C@H](CO)[C@H](O)c1ccc([N+](=O)[O-])cc1)C(Cl)Cl [CHLORAMPHENICOL] | 13927
Cc1ccc(S(=O)(=O)NC(=O)NN2CC3CCCC3C2)cc1 (configuration not stated) [GLICLAZIDE] | 11101.33

Form field: reported ABSOLUTE LYMPHOCYTE of CO[C@H]1/C=C/O[C@@]2(C)Oc3c(C)c(O)c4c(c3C2=O)C2=NC3(CCN(CC(C)C)CC3)NC2=C(NC(=O)/C(C)=C\C=C\[C@H](C)[C@H](O)[C@@H](C)[C@@H](O)[C@@H](C)[C@H](OC(C)=O)[C@@H]1C)C4=O [RIFABUTIN]
11388

Form field: reported ABSOLUTE LYMPHOCYTE of Cc1cc(=O)n(-c2ccccc2)n1C [ANTIPYRINE]
19193.67

---

organism: Rattus norvegicus; experiment: DrugMatrix - Regimen: Daily Repeat; assay type: toxicity, organism-based, Sprague-Dawley; parameters: regimen Daily Repeat, gender Male, age 6-8 weeks; conditions: in vivo, iv, 0 mg/kg, 120 h, tissue Plasma, dose level Control, time 5 day, vehicle 100 % SALINE
Measured ASPARTATE AMINOTRANSFERASE accompanies every entry in the list below.
Unit u/L implied. Number only.

Previously resolved entries follow.
CC(=O)N[C@@H]1[C@H](Oc2c3cc4cc2Oc2ccc(cc2Cl)[C@@H](O[C@@H]2O[C@@H](CO)[C@@H](O)[C@H](O)[C@@H]2NC(C)=O)[C@@H]2NC(=O)[C@H](NC(=O)[C@@H]4NC(=O)[C@H]4NC(=O)[C@@H](Cc5ccc(c(Cl)c5)O3)NC(=O)[C@H](N)c3ccc(O)c(c3)Oc3cc(O)cc4c3)c3ccc(O)c(c3)-c3c(O[C@H]4O[C@H](CO)[C@@H](O)[C@@H](O)[C@@H]4O)cc(O)cc3[C@@H](C(=O)O)NC2=O)O[C@@H](CO)[C@@H](O)[C@@H]1O | 86.17
COc1cccc2c1C(=O)c1c(O)c3c(c(O)c1C2=O)C[C@@](O)(C(=O)CO)C[C@@H]3O[C@H]1C[C@H](N)[C@@H](O)[C@H](C)O1 [EPIRUBICIN] | 93.33
CCC1=C[C@@H]2CN(C1)Cc1c([nH]c3ccccc13)[C@@](C(=O)OC)(c1cc3c(cc1OC)N(C)[C@H]1[C@@](O)(C(=O)OC)[C@H](OC(C)=O)[C@]4(CC)C=CCN5CC[C@]31[C@@H]54)C2 | 84.83
COc1cccc2c1C(=O)c1c(O)c3c(c(O)c1C2=O)C[C@@](O)(C(=O)CO)C[C@@H]3O[C@H]1C[C@H](N)[C@H](O)[C@H](C)O1 | 84.17
CCc1c2c(nc3ccc(OC(=O)N4CCC(N5CCCCC5)CC4)cc13)-c1cc3c(c(=O)n1C2)COC(=O)[C@]3(O)CC | 93.33

Now for a further molecule.
Form field: reported ASPARTATE AMINOTRANSFERASE of CC[C@]1(O)C[C@@H]2CN(CCc3c([nH]c4ccccc34)[C@@](C(=O)OC)(c3cc4c(cc3OC)N(C)[C@H]3[C@@](O)(C(=O)OC)[C@H](OC(C)=O)[C@]5(CC)C=CCN6CC[C@]43[C@@H]65)C2)C1
81.67

---

species on record: Rattus norvegicus; assay: DrugMatrix - Regimen: Daily Repeat; assay type: toxicity, organism-based, Sprague-Dawley; set-up: regimen Daily Repeat, gender Male, age 6-8 weeks; conditions: in vivo, po, 0 mg/kg, 72 h, tissue Blood, route oral GAVAGE, dose level Control, time 3 day, […]
observationType: HEMOGLOBIN (G/DL)
Unit G/DL implied. Number only.

CC(=O)Nc1cccc(O)c1 | 13.4
C[C@H]1O[C@@H](O[C@H]2[C@@H](O)C[C@H](O[C@H]3[C@@H](O)C[C@H](O[C@H]4CC[C@@]5(C)[C@H](CC[C@@H]6[C@@H]5CC[C@]5(C)[C@@H](C7=CC(=O)OC7)CC[C@]65O)C4)O[C@@H]3C)O[C@@H]2C)C[C@H](O)[C@@H]1O | 13.23

Form field: reported HEMOGLOBIN of C[C@]12CC[C@@H]3c4ccc(O)cc4CC[C@H]3[C@@H]1CC[C@@H]2O
13.42

Form field: reported HEMOGLOBIN of CCOC(=O)C1=C(C)NC(C)=C(C(=O)OC)C1c1cccc([N+](=O)[O-])c1 (stereo not given)
13.27

Form field: reported HEMOGLOBIN of CC(=O)Nc1ccc(O)cc1
12.98

Form field: reported HEMOGLOBIN of CC(C)Cc1ccc(C(C)C(=O)O)cc1 (stereo not given)
13.43
